- test target: ErbB4 on neonatal rat cardiomyocytes (rat) (UniProt Q62956)
- Sequence (Q62956 26-1308): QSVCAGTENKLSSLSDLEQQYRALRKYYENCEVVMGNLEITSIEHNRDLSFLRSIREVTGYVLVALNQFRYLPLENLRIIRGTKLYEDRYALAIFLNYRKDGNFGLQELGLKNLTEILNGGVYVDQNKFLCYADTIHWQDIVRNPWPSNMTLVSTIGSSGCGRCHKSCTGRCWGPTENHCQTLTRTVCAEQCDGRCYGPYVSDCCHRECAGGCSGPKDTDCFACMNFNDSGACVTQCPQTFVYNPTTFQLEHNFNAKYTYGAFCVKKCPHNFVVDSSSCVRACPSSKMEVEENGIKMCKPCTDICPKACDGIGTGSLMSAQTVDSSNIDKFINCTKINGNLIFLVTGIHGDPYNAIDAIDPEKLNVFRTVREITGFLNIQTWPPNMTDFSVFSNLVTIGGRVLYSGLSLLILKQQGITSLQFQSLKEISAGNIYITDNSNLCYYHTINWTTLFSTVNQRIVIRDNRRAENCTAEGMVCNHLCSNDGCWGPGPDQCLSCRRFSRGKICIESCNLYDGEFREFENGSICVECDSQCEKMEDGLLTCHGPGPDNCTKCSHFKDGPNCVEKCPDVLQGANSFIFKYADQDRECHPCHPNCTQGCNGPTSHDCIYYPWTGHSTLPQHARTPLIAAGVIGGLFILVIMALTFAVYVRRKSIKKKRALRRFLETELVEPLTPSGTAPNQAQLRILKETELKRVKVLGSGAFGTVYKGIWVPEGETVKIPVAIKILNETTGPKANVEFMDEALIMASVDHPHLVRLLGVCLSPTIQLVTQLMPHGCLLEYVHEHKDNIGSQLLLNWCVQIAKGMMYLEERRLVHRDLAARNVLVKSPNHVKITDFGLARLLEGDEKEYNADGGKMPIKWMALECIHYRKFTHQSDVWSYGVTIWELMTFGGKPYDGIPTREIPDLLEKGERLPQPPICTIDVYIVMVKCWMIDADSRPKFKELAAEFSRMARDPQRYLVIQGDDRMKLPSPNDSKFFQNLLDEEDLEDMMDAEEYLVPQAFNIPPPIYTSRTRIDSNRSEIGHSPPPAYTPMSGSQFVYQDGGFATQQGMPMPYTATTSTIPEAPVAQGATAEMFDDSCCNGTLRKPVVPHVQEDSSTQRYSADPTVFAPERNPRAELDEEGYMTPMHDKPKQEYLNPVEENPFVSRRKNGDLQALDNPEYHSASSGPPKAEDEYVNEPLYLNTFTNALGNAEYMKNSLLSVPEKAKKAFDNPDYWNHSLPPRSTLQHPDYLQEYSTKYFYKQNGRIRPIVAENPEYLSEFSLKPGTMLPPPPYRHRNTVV
- run description: cell-based or functional assay
result type: Cardiomyocyte (CM) (ErbB4) Avg EC50 (nM)
Only the number, expressed in nM, is required.

Q. Value lookup for Cardiomyocyte (CM) (ErbB4) Avg EC50; key = huNRG1(S177-Q237)(NRGE1M)::GG::huFcSEFL2 (Pb) (Fc fusion) SHLVKCGENDKSFCVNGGECFMIEGPSNPSRYLCKCPNEFTGDRCQDFFMASFYKAEELYQGGDKTHTCPPCPAPELLGGPSVFLFPPKPKDTLMISRTPEVTCVVVDVSHEDPEVKFNWYVDGVEVHNAKTKPCEEQYGSTYRCVSVLTVLHQDWLNGKEYKCKVSNKALPAPIEKTISKAKGQPREPQVYTLPPSREEMTKNQVSLTCLVKGFYPSDIAVEWESNGQPENNYKTTPPVLDSDGSFFLYSKLTVDKSRWQQGNVFSCSVMHEALHNHYTQKSLSLSPGK
A. 25.6
